Assay: RNA encapsulation efficiency of LNPs by Quant-IT Ribogreen
Format: physicochemical
Settings: Table 8; LNP 50:10:38.5:1.5, luciferase mRNA
Please assign class 0 whenever Encaps. efficiency is at or above 50%, and class 1 whenever it is below.

Task: Below 50% on Encaps. efficiency? Entry CCCCCCCCC(CCCCCCCC)OC(=O)C(CSCCC(=O)OCC(CC)CCCC)CC(=O)NCCCn1ccnc1 (centres unmarked)
Result: class 1

Task: Below 50% on Encaps. efficiency? Entry CCCCCCCCCCCCCOC(=O)CCSCCC(C(=O)NC1CCN(C)CC1)C(=O)OC(CCCCCCCC)CCCCCCCC (centres unmarked)
Result: class 0

Task: Below 50% on Encaps. efficiency? Entry CCCCCCCCCCCCCCCCOC(=O)CCSCC(CC(=O)NCCCN1CCOCC1)C(=O)OC(CCCCCCCC)CCCCCCCC (centres unmarked)
Result: class 1

Task: Below 50% on Encaps. efficiency? Entry CCCCCCCCCCC(CCCCCCCC)C(=O)NC(CCSCCC(=O)OCCCCCC(C)C)C(=O)NCC1CCN(C)CC1 (centres unmarked)
Result: class 0

Task: Below 50% on Encaps. efficiency? Entry CCCCCCCC/C=C\CCCCCCCCOC(=O)CCSCC(CC(=O)NC1CCN(C)CC1)C(=O)OCC(CCCCCC)CCCCCCCC (centres unmarked)
Result: class 0

Task: Below 50% on Encaps. efficiency? Entry CCCCCCCCCCCCCCOC(=O)CCSCCC(C(=O)NCCCn1ccnc1)C(=O)OC(CCCCCCCC)CCCCCCCC (centres unmarked)
Result: class 1

Task: Below 50% on Encaps. efficiency? Entry CCCCCCCCC(CCCCCC)C(=O)NC(CCSCCC(=O)OCCCCCCCC(C)C)C(=O)NCCCN(C)C (centres unmarked)
Result: class 0

Task: Below 50% on Encaps. efficiency? Entry CCCCCCCCCCCCCCCCCCOC(=O)CCSCC(CC(=O)NCCCN1CCOCC1)C(=O)OC(CCCCCCCC)CCCCCCCC (centres unmarked)
Result: class 1

###

Test: Size distribution, polydispersity and Z-potential of LNPs by dynamic light scattering (Malvern Zetasizer)
Type: physicochemical
Settings: LNPs, standard formulation 50:10:38.5:1.5; DLS
Each entry falls in a class defined on Z Potential (± D.E.) [mV]; the bands are Low: < -10 mV; Mid: ≥ -10 mV and < -3 mV; High: ≥ -3 mV

Check out these entries, answers already filled in.
>  <Molecule>
CCCCCCCCC(CCCCCC)COC(=O)C(CCSCCC(=O)OCCCCCCCC(C)C)C(=O)NCCCN1CCOCC1 (stereo not shown) [VC-LC-0607]

>  <Class name>
Low

$$$$
>  <Molecule>
CCCCCCCCC(CCCCCCCC)OC(=O)C(CSCCC(=O)OCCCCCC(C)C)CC(=O)NCCCn1ccnc1 (stereo not shown) [VC-LC-0302]

>  <Class name>
Mid

$$$$
>  <Molecule>
CCCCCCCCCCCCCCOC(=O)CCSCCC(C(=O)NC1CCN(C)CC1)C(=O)OC(CCCCCCCC)CCCCCCCC (stereo not shown) [VC-LC-0444]

>  <Class name>
Mid

$$$$
>  <Molecule>
CCCCCCCCCCCCC(CCCCCCCCCC)COC(=O)CCSCC(CC(=O)NC1CCN(C)CC1)C(=O)OCC(CCCCCC)CCCCCCCC (stereo not shown) [VC-LC-0537]

>  <Class name>
Mid

$$$$
>  <Molecule>
CCCCCCCCC(CCCCCC)C(=O)NC(CCSCCC(=O)OCCCCCCCC(C)C)C(=O)NCCN(CC)CC (stereo not shown) [VC-LC-0475]

>  <Class name>
Mid

$$$$
>  <Molecule>
CCCCCCCCC(CCCCCC)C(=O)NC(CCSCCC(=O)OCCCCCC(C)C)C(=O)NCCN1CCN(C)CC1 (stereo not shown) [VC-LC-0186]

>  <Class name>
High

$$$$

Task: Note: place this molecule into its band. Item: CCCCCCCCCCCCC(CCCCCCCCCC)COC(=O)CCSCCC(NC(=O)C(CCCCCC)CCCCCCCC)C(=O)NCCN1CCOCC1 (stereo not shown) [VC-LC-0407]
Result: Low

Task: Note: place this molecule into its band. Item: CCCCCCCCOC(=O)CCSCCC(NC(=O)C(CCCCCC)CCCCCCCC)C(=O)NCCN1CCN(C)CC1 (stereo not shown) [VC-LC-0191]
Result: High
